Target: Cytochrome P450 2C9 (Homo sapiens) (UniProt P11712)
Sequence (P11712 whole entry, looked up): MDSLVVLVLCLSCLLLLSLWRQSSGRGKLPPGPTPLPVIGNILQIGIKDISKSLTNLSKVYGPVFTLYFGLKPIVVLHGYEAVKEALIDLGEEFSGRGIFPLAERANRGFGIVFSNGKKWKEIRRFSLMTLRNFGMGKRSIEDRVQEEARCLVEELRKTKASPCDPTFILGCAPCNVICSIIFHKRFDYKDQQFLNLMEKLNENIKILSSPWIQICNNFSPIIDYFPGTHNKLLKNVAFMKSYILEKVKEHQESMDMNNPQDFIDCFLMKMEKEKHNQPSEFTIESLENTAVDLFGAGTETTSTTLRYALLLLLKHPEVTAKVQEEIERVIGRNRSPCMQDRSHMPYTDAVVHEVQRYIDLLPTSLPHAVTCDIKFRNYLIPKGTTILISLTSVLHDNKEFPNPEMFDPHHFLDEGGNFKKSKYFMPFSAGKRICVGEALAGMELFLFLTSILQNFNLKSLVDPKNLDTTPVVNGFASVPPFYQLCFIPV
Experiment: Cytochrome panel assay with activity outcomes
Conditions: recombinant CYP, pro-luciferin dealkylation, luminescence, p450-cyp2c9; series mostly up to 57.1 µM
Screen size: about 16,000 compounds; about 4,000 (25%) were called active. About 26% were inconclusive and are not listed. Calls come from the whole dose curve; as a rule, active = well fitted curve in the direction sought with a large enough effect; inconclusive = small, poorly fitted or top-dose-only effect, or effect the other way; inactive = no such curve, though single readings can be large or run the other way. A selection follows.
I would appreciate it if you answered using one of these outcomes: active, inactive

Check out these entries, answers already filled in.
{"columns": ["molecule", "cat"],
 "data": [
  ["CN1CCN(c2ncc3nc(-c4ccc(Cl)cc4)c(=O)n(Cc4ccc(F)cc4)c3n2)CC1", "inactive"],
  ["CCN(CC)C(=O)Cn1cnc([N+](=O)[O-])n1", "inactive"],
  ["Cc1ccc2c(c1)N(CC(=O)NC1CCCc3ccccc31)C(=O)CO2 (stereo unspecified)", "inactive"],
  ["CCOC(=O)N1CCN(C(=O)c2ccc3nc(N4CCC(C)CC4)sc3c2)CC1", "active"],
  ["COC(=O)c1c(-n2c(C)cc(C=O)c2C)sc2c1CCCC2", "active"]
]}

Switching to the query record.
Assay outcome for O=c1c(-c2ccccc2)nc2cnc(N3CCNCC3)nc2n1Cc1ccc(F)cc1 : what was it?
active
